assay target: hGLP-1R (Homo sapiens, UniProt P43220)
Sequence (P43220 24-463): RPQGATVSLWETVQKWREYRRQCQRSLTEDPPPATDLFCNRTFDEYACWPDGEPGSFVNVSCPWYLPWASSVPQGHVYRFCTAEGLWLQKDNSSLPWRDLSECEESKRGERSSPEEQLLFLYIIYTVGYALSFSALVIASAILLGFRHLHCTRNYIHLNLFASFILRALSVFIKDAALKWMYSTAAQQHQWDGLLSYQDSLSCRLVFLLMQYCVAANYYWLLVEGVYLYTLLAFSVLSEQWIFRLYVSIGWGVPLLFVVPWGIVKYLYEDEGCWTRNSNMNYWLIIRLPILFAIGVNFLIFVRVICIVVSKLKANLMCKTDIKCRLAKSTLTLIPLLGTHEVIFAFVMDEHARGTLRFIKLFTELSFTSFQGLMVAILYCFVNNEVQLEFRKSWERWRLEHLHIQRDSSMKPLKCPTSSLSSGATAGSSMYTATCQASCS
assay overview: cell-based or functional assay
reported endpoint: cAMP Rel EC50 (in the presence of 1% HSA)

| binder | endpoint value |
| --- | --- |
| YXQGTFTSDFSXXLDKKAQXAFIEWLLEGGSSSGAPPPGGT (Aib, Orn, αMeL; acylated lysine; amide; synthetic construct; SITE 2: note = 2-Aminoisobutyric Acid; SITE 12: note = L-ornithine; SITE 13: note = alpha-methyl-leucine; SITE 17: note = Lysine is chemically modified through conjugation of the epsilon-amino group of the Lysine side chain with (2-[2-(2-Amino-ethoxy)-ethoxy]-acetyl)-(gamma-Glu)) [Example 272] | 486 nM |
| YXQGTFTSDFSKXLDKKAQXAFIEYLLAGGPSSGEPPPSGEX (not fully specified; synthetic construct; SITE 2: note = 2-Aminoisobutyric Acid; SITE 13: note = alpha-methyl-leucine; SITE 17: note = Lysine is chemically modified through conjugation of the epsilon-amino group of the Lysine side chain with (2-[2-(2-Amino-ethoxy)-ethoxy]-acetyl)-(gamma-Glu)-CO-(CH2) 18-CO2H; SITE 20: n) [Example 33] | 436 nM |
| YXQGTFTSDFSKXLDKKAQXAFIEYLLAGGPSSGEPPPGGS (synthetic construct; SITE 2: note = 2-Aminoisobutyric Acid; SITE 13: note = alpha-methyl-leucine; SITE 17: note = Lysine is chemically modified through conjugation of the epsilon-amino group of the Lysine side chain with (2-[2-(2-Amino-ethoxy)-ethoxy]-acetyl)-(gamma-Glu)-CO-(CH2) 18-CO2H; SITE 20: n) [Example 9] | 402 nM |
| YXQGTFTSDXXQXLDXKAQXQFIQXLIEGGPSSGEPPPSGGGE (not fully specified; non-natural residues; lysine acylated γGlu-C18 diacid; C-terminal amide; synthetic construct; SITE 2: note = 2-Aminoisobutyric Acid; SITE 10: note = 3-(4-Pyridyl)-L-alanine; SITE 11: note = alpha-methyl-L-serine; SITE 13: note = alpha-methyl-leucine; SITE 16: note = L-ornithine; SITE 17: note = Lysine is chemically modified through conjugation of the epsilon-amino group) [Example 1188] | 77.1 nM |
| YXQGTXTSDXSIXLDXKAQXEFIEXLLEGGPSSGAPPPSGE (Non-natural residues; K acylated AEEA-γGlu-C18 diacid; C-terminal amide; synthetic construct; SITE 2: note = 2-Aminoisobutyric Acid; SITE 6: note = alpha-methyl-2-fluoro-L-phenylalanine; SITE 10: note = 3-(4-Pyridyl)-L-alanine; SITE 13: note = alpha-methyl-leucine; SITE 16: note = L-ornithine; SITE 17: note = Lysine is chemically modified through conjugation of the epsil) [Example 615] | 82.9 nM |
| YXQGTFTSDFSXXLDKKAQXAFIEWLLEGGSSSGAPPPSGH (Aib, Orn, αMeL; K acylated AEEA-γGlu-C18 diacid; C-amide; synthetic construct; SITE 2: note = 2-Aminoisobutyric Acid; SITE 12: note = L-ornithine; SITE 13: note = alpha-methyl-leucine; SITE 17: note = Lysine is chemically modified through conjugation of the epsilon-amino group of the Lysine side chain with (2-[2-(2-Amino-ethoxy)-ethoxy]-acetyl)-(gamma-Glu)) [Example 270] | 658 nM |
| YXQGTXTSDXSIXLDKKAQXXFIEYLEEGGPSSGEPPPSGSEE (non-natural residues; C18 diacid-(γGlu)2 on Lys; C-terminal amide; synthetic construct; SITE 2: note = 2-Aminoisobutyric Acid; SITE 6: note = alpha-methyl-2-fluoro-L-phenylalanine; SITE 10: note = 3-(4-Pyridyl)-L-alanine; SITE 13: note = alpha-methyl-leucine; SITE 17: note = Lysine is chemically modified through conjugation of the epsilon-amino group of the Lysine) [Example 635] | 53.9 nM |
| YXQGTFTSDFSKXLDKKAQXAFIEYLLEXGPSSGAPPPSSG (synthetic construct; SITE 2: note = 2-Aminoisobutyric Acid; SITE 13: note = alpha-methyl-leucine; SITE 17: note = Lysine is chemically modified through conjugation of the epsilon-amino group of the Lysine side chain with (2-[2-(2-Amino-ethoxy)-ethoxy]-acetyl)-(gamma-Glu)-CO-(CH2) 18-CO2H; SITE 20: n) [Example 44] | 591 nM |
| YXQGTXTSDXXILLDXKAQXXFIEYLIEGGPSSGEPPPEGAEE (non-natural residues, (γGlu)2-C18 diacid lysine acylation, C-terminal amide; synthetic construct; SITE 2: note = 2-Aminoisobutyric Acid; SITE 6: note = alpha-methyl-2-fluoro-L-phenylalanine; SITE 10: note = 3-(4-Pyridyl)-L-alanine; SITE 11: note = alpha-methyl-L-serine; SITE 16: note = L-ornithine; SITE 17: note = Lysine is chemically modified through conjugation of the epsi) [Example 604] | 51 nM |
| YXQGTFTSDFSXXLDKKAQXAFIEYLLEAGPSSGAPPPSGH (C-terminal amide; lysine acylated with AEEA-γ-Glu-C18 diacid; synthetic construct; SITE 2: note = 2-Aminoisobutyric Acid; SITE 12: note = L-ornithine; SITE 13: note = alpha-methyl-leucine; SITE 17: note = Lysine is chemically modified through conjugation of the epsilon-amino group of the Lysine side chain with (2-[2-(2-Amino-ethoxy)-ethoxy]-acetyl)-(gamma-Glu)) [Example 259] | 220 nM |
| YXQGTXTSDXSIXLDXKAQXEFIEXLIEGGPSSGEPPPSGS (non-natural residues; AEEA-γGlu-C18 diacid acyl; C-terminal amide; synthetic construct; SITE 2: note = 2-Aminoisobutyric Acid; SITE 6: note = alpha-methyl-2-fluoro-L-phenylalanine; SITE 10: note = 3-(4-Pyridyl)-L-alanine; SITE 13: note = alpha-methyl-leucine; SITE 16: note = L-ornithine; SITE 17: note = Lysine is chemically modified through conjugation of the epsil) [Example 644] | 34.3 nM |
| YXQGTXTSDXSIXLDXKAQXEFIEXLAEGGPSSGAPPPSGS (non-natural residues, lysine acylation, C-terminal amide; synthetic construct; SITE 2: note = 2-Aminoisobutyric Acid; SITE 6: note = alpha-methyl-2-fluoro-L-phenylalanine; SITE 10: note = 3-(4-Pyridyl)-L-alanine; SITE 13: note = alpha-methyl-leucine; SITE 16: note = L-ornithine; SITE 17: note = Lysine is chemically modified through conjugation of the epsil) [Example 642] | 67.1 nM |
| YXQGTFTSDXXQXLDXKAQXQFIQXLIEXGPSSGEPPPSGGGE (non-natural residues, lipidated Lys, C-terminal amide; synthetic construct; SITE 2: note = 2-Aminoisobutyric Acid; SITE 10: note = 3-(4-Pyridyl)-L-alanine; SITE 11: note = alpha-methyl-L-serine; SITE 13: note = alpha-methyl-leucine; SITE 16: note = L-ornithine; SITE 17: note = Lysine is chemically modified through conjugation of the epsilon-amino group) [Example 1183] | 53.6 nM |
